Each record here notes measured log10 IC50.
Target Entity: PDE4B (human recombinant) (Homo sapiens, UniProt Q07343)
Construct: made in house
Sequence (Q07343 1-564 isoform Q07343-2): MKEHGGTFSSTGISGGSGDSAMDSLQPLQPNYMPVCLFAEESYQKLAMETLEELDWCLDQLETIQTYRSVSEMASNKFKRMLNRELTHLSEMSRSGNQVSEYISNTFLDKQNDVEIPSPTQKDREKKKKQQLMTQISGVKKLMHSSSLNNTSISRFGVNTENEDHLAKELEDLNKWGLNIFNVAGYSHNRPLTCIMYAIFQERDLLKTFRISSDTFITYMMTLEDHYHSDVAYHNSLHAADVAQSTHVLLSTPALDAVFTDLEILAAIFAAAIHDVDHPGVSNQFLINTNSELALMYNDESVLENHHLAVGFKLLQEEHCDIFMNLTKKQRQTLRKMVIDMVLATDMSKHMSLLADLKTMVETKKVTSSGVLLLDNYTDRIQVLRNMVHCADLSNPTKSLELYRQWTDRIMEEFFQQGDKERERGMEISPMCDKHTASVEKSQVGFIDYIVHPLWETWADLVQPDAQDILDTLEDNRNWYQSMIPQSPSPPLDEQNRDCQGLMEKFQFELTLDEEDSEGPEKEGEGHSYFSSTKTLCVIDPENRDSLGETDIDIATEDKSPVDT
Procedure Text: Inhibition of PDE4B activity (radioactive SPA assay or IMAP FP assay)
Type: biochemical
Condition Summary: specific Examples; one reading or average of ca. 2-6 readings; read-out: PDE4B pIC50 (± about 0.5) (converted)
Form field - Quantity: IC50; Unit: nM; Scale: log10

Worked examples follow.
1. CCn1ncc2c(N[C@@H](C)C(C)C)c(C(=O)NCc3ccccc3)cnc21 [Example 38]; 1.30
2. CCn1ncc2c(N[C@H](C)C(C)C)c(C(=O)Nc3ccc(F)cc3)cnc21 [Example 2]; 1.80
3. CCC(C)Nc1c(C(=O)Nc2ccccc2)cnc2c1cnn2C(C)C (centres unmarked) [Comparative Example 61, reference compound]; 2.30
4. CCC(CC)CNC(=O)c1cnc2c(cnn2CC)c1N[C@@H](C)C(C)C [Example 51]; 0.90

Query string: // lookup log10 IC50 for CCn1ncc2c(N[C@@H](C)C(C)C)c(C(=O)Nc3ccc(F)cc3)cnc21 [Example 39]
Result string: 1.80

Query string: Now try CCn1ncc2c(NC(C)(C)C)c(C(=O)Nc3ccc(F)cc3)cnc21 [Example 54] .
Result string: 2.00

Query string: Okay, and CCCCNC(=O)c1cnc2c(cnn2CC)c1NCCCC [reference compound] ?
Result string: 2.20
